Test system: MDA-MB-231
Test: normalised viability (% of control), CellTiter-Blue; higher = more viable cells (about 100 = DMSO control)
Conditions: 10 nM; incubation time: 72 h
PROPERTY_NAME: normalised viability (%)

>  <LINE_NOTATION>
C[C@]12C=CC(=O)C=C1CC[C@@H]1[C@@H]2[C@@H](O)C[C@@]2(C)[C@H]1CC[C@]2(O)C(=O)CO

>  <TARGET_DESC>
MDA-MB-231

>  <PROPERTY_NAME>
normalised viability

>  <RESULT_VALUE>
113

$$$$
>  <LINE_NOTATION>
CO[C@@H](C(=O)N1Cc2[nH]nc(NC(=O)c3ccc(N4CCN(C)CC4)cc3)c2C1)c1ccccc1

>  <TARGET_DESC>
MDA-MB-231

>  <PROPERTY_NAME>
normalised viability

>  <RESULT_VALUE>
87.9

$$$$
>  <LINE_NOTATION>
Cc1c(CN2CCN(C(=O)[C@H](C)O)CC2)sc2c(N3CCOCC3)nc(-c3cnc(N)nc3)nc12

>  <TARGET_DESC>
MDA-MB-231

>  <PROPERTY_NAME>
normalised viability

>  <RESULT_VALUE>
95.6

$$$$
>  <LINE_NOTATION>
O=C(Nc1c[nH]nc1-c1nc2ccc(CN3CCOCC3)cc2[nH]1)NC1CC1

>  <TARGET_DESC>
MDA-MB-231

>  <PROPERTY_NAME>
normalised viability

>  <RESULT_VALUE>
87.5

$$$$
